These entries and their values trace back to a protein production outcome set (Wang et al. 2014).

Assay: label from the status in PepcDB records;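 note: failed if final PepcDB status was selected cloned or expressed and not failed if soluble or beyond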
QUANTITY NAME: protein production

Solved entries (count: 5):
{"SEQUENCE RECORD": "MASRSRRPERRQEPLSRERIVGAAVELLDTVGERGLTFRALAERLATGPGAIYWHITGKAELLGAATDAVVTAAVTAGPTGAADSPQDAVRAVALGLWDATEAHPWLATQLATQLSRTPWGTVAPRIFESLGRQVQAMGVPEAHWFTASSALMHYILGAAGQNAANSASAGPVGADVDRDEFLDTVSTAWEGLDPDAYPFTRAVADQVRGHDDREQFLAGITLVLTGITALHRPGR", "protein production": "not failed"}
{"SEQUENCE RECORD": "MTRTPLTLEQLNALSDDAFTEHFAGVLEHSPHYARRAAAGRPFADVEEVAAAFARAVAADEPGAQVQLIRAHPDLAGKAALAGELTAESASEQTSAGLDRLSPEEYAEFQRLNAAYHERFGLPYVVCVRENTKDTIFEGARRRLTHTQEEEQAAALHEIGRIARLRILDLVQEGRQEKRMDGRLIRIPLEHHHHHH", "protein production": "failed"}
{"SEQUENCE RECORD": "WERLRMLLEVCQFSRDASVAEAWLIAQEPYLASGDFGHTVDSVEKLIKRHEAFEKSTASWAERFAALEKPTTLELKERQIA", "protein production": "failed"}
{"SEQUENCE RECORD": "TIATSGKLNWGIRESFNNYTNGASKVEDGATLISTNNFEFKLEKATYDAAKERTEAQFRGKIVYLKYCDDMKTFTNCQLDLTIKDPKIVISNEENYVEAVVDSKQYPSGEWYKSNGPVKIANLYPGSATVDSKDNSTEWTNVVSALANPGGVKMFSEFYGENEGLAPLSFSYDG", "protein production": "failed"}
{"SEQUENCE RECORD": "NNLFVYCEIEDGIVADVSLELLTKGRSLANQLGCQLEAVVAGTGLKDIEKQILPYGVDKLHVFDGEGLYPYTSLPHTSILVNLFKEEQPQICLMGATVIGRDLGPRVSSALTSGLTADCTSLEIGDHEDKKEGKVYKNLLYQIRPAFGGNIVATIVNPEHRPQMATVREGVMKKAILAADYKGEVIHHDVKKYVADTDYVVKVIERHVEKAKNN", "protein production": "failed"}

What value of protein production has been recorded for this entry: MVVNESMYQLGSVRSAIRELFEYGKKRAAIVGKENVYDFSIGNPSIPAPQIVNDTIKELVTDYDSVALHGYTSAQGDVETRAAIAEFLNNTHGTHFNADNLYMTMGAAASLSICFRALTSDAYDEFITIAPYFPEYKVFVNAAGARLVEVPADTEHFQIDFDALEERINAHTRGVIINSPNNPSGTVYSEETIKKLSDLLEKKSKEIGRPIFIIADEPYREIVYDGIKVPFVTKYYDNTLVCYSYSKSLSLPGERIGYVLVPDEVYDKAELYAAVCGAGRALGYVCAPSLFQKMIVKCQGATGDINAYKENRDLLYEGLTRIGYHCFKPDGAFYMFVKALEDDSNAFCEKAKEEDVLIVAADGFGCPGWVRISYCVDREMIKHSMPAFEKIYKKYNK
not failed

What value of protein production has been recorded for this entry: NKKIYVGMTADIMHPGLIHIIHEATKYGDVIVGLLTDKAIAEHKRLPYLTYDQRKEVVENIKGVCEVVPQEDWSYVPNLEKLKPDYIIHGDDWKTGPLREVREQVFEVMNAQGGKVIEIPYTRGINSSSLDKDIKAIGT
failed

* * *

Assay: label from the status in PepcDB records
QUANTITY NAME: protein production

Solved entries (count: 5):
{"SEQUENCE RECORD": "MSERIVPSGDVELWSDDFGDPADPALLLVMGGNLSALGWPDEFARRLADGGLHVIRYDHRDTGRSTTRDFAAHPYGFGELAADAVAVLDGWGVDRAHVVGLSMGATITQVIALDHHDRLSSLTMLLGGGLDIDFDANIERVMRGEPTLDGLPGPQQPFLDALALMNQPAEGRAAEVAKRVSKWRILSGTGVPFDDAEYARWEERAIDHAGGVLAEPYAHYSLTLPPPSRAAELREVTVPTLVIQAEHDPIAPAPHGKHLAGLIPTARLAEIPGMGHALPSSVHGPLAEVILAHTRSAA", "protein production": "not failed"}
{"SEQUENCE RECORD": "MNWVAPIKDQETLKNFGETLKQVDYKYYIMFELGVGTGLQLQDILAFKNKDVTGKKEIEVTIGTRNMKNVFTVPEELQQIINEYTKGKDPEAYLILGHSSSNKPVSREQAYRVLRSAGHKIGLNSIGAQTMRKTYAWNYYKETGDIYHLQKLFNHASPSITYRFIGEKPNIEVFLKKMTPQENERSRYLLYLNDNGKKKLNKIIDILTGIRDNFDSPANNDAFYGKVDCLLQELEALMENYENTK", "protein production": "failed"}
{"SEQUENCE RECORD": "DAPPAWLRCLAATYPVLAPLPNWGLSESRFRPVRAVANAGALPVVLTRVGREMPEIAATVEEFLAAAKDCGADVEVVDVPHGHHGFETIDLTDESRTAVRHALRTVL", "protein production": "failed"}
{"SEQUENCE RECORD": "MVMEYELRTPLVKDQILKLKVGDVVYITGEIFTARDEAHARALEWMEEGKELPFSFDKGVVYHCGPLVKKNDEWRVVSAGPTTSARMNPFTPKILEKVECMGIIGKGGMSEEVVEAMRGKAAYFAFTGGAGALAAMSIKKVKGVVWEDLGMPEAVWLLEVERFGPCIVAIDAHGNSLYRR", "protein production": "not failed"}
{"SEQUENCE RECORD": "MEGTVFTPCLEGMKHVKSDQGEMLTKPFLELCKTILPVIDKFGAAMTLVKSDIGGNITRLEKNYLSDPDKFKYLYTFVQVEIESKIAKGSSSCTNGLLWLTRAMDFLVELFRNLVAHQDWSMPQACADSYQKTLKKWHGWLASSTFSMALKLAPDRKKFMDVISGSGNIQADMERFCAEFGPFLHDNHKFLASVGMDDMKAS", "protein production": "not failed"}

What value of protein production has been recorded for this entry: QESVEDSLATVKVVLIPVGQEIVIPFKVDTILKYLKDHFSHLLGIPHSVLQIRYSGKILKNNETLVQHGVKPQEIVQVEIFSTNPDLYPVRRIDGLTDVSQIITV
not failed

What value of protein production has been recorded for this entry: MDFESNGAMMEYCKSTGRTYCAFSIQQSSKLLGTVVLELFTDIAPATCANFIKYIKDGYQGTPLHRIVPNGWVQGGDIVDGSGKGDPGFVLPDETYSVKHDAPGVLGMATGGQPHTANTQFYISLSPLPFLDGKRVAFGRVLNKQSLENLLALQTLPTFQNERPVPDVVIASCHVIYNPNS
failed

What value of protein production has been recorded for this entry: TVEEVIEETPEKSELELANERADEFENKYLRAHAEMQNIQRRSSEERQQLQRYRSQDLAKAILPSLDNLERALAVEGLTDDVKKGLEMTRDSLIQALKEEG
not failed

* * *

Test: label from the status in PepcDB records

{"SEQUENCE RECORD": "MDKRLIVMHNLSRHYGKQYWWQQNSLEDWLMMILIQRTSSKNVAQAVHNLQPYMQVDRLMALSQSELETLVRPAGFYRQKAQRIHDLLTWFVAQGGSFEKIAEKPAAELRETLLALNGIGNETADVMLMYTFGKKTFVADTYAMRLFNRLGFGPYTNYAKMQADFAPALDQITLDEAREWHALIDEHGKTQVRHAYDDRFLLQPDLTEAAWPPEAVQVEPPHDDPGSGKWRHAADPSAMTHK", "protein production": "failed"}
{"SEQUENCE RECORD": "MNYLVLLIPVLFSFHQIFVRLGSREAETISGIYVSLLASTIIFIPSVANPTLDGMFLLYMSLAGVLHFFVARICFYHAISRIGANLSAPLSATRVFFAALLGIFVGEYLTLRVVVMSLLIFAGIVLISRPKGKADAFGVTLGILTGLFSALSSYFVKFGNAVDYNPLFAIFLGFALSTILMTPLAVRKDLSHTKFYLAAGVTVGIAHLLRYVVLKDVPVTVVEPITSSYPLFTLLLSAIFLREGEIFTLRSITGTLLILGGIYVYYA", "protein production": "failed"}

* * *

Experiment: label from the status in PepcDB records
QUANTITY NAME: protein production

Solved entries (count: 6):
{"SEQUENCE RECORD": "MANENVAFENKRQVYHYEPPIQKEEAIPKQYFAGFWIRFLAYLVDLVVIAALKGIIINPIFRVSGMGMDDSFFTFYWGMTTIIFLAYFILLTKFFGQTLGKMLFGLRVVKLDGGKLTWLTVLFREGAMRFVLKTIWPLYVVCAFTPNKQGIADFFESTSVVHTGYLELDEKWVNGAKK", "protein production": "failed"}
{"SEQUENCE RECORD": "EHIARRKAGDAAERLVKLIPAFCHHMPDYPDTQETCEAAVVKLKAGDIVLVKPGETIPVDGTVLEGSSAVNESMLTGESLPVAKMPSEKVTAGTLNTQSPLIIRTDRTGGGTRLSHIVRLLDRALAQKPRTAELAEQ", "protein production": "failed"}
{"SEQUENCE RECORD": "MGVTLAKGGNVSLSKAAPNLTQVLVGLGWDARSTTGAPFDLDASALVCSSGRVLGDEWFVFYNQLKSPDGSIEHTGDNLTGEGDGDDESLLVDLSKVPAHCDKIVFPVSIHMADERGQTFGQVSNAFIRVVNQADGQELARYDLSEDASTETAMIFGELYRYQGEWKFRAVGQGYASGLRGIALDFGVNVS", "protein production": "not failed"}
{"SEQUENCE RECORD": "MSLSYVHTEIQNDALYITLDYPEKKNGLDAELGTSLLEAIRAGNNETSIHSIILQSKHRAYFSSGPRLEDLLICASDQSDVRLREVLHVLNHCVLEIFTSPKVTVALINGYAYGGGFNMMLACDRRIALRRAKFLENFHKMGISPDLGASYFLPRIIGYEQTMNLLLEGKLFTSEEALRLGLIQEICENKQELQERVKNYLKAVSEGYVPAIAATKKLLKGKAAEELKQQLEQETEELVALFKQTEIKKRLEALVEGHHHHHH", "protein production": "not failed"}
{"SEQUENCE RECORD": "MSIESFNLLLLVMGLVALVVFIALYFVRAGYGMFRSRSWGISVNNKIAWILMEAPVFLVMGWLWWHSDRRFLPVELTFFLFFQLHYFQRAFVFPFLMKGKSKMPVLILLMGVIFNILNGLMQGEWIFYLAPSDYYTPGWLLTPCFWIGTLLFFAGMGINWHSDSVIRHLRAPGDTRHYLPQRGMYRYVTSANYLGEIVEWVGWAILTWSLSGCIFAWWTVANLVPRADAIWHRYREEFGTQVGLKKRIFPFLY", "protein production": "failed"}
{"SEQUENCE RECORD": "MAVLVTGATGFIAQWVLDCLLKENYQVIGTVRSQEKGDKLHKQFGSPSKLSFEIVKDISDTEAFEPLFKKRGKEIDIVLHMASPCHFNTSDYEKDLLIPALNGTKGVLNAIKKYGDVKKVVVTSSYAAITDMVNSADGSLVFTEKDWNPATWERCQTDAVNAYCASKKFAEQAAWEFSKETGVSLTTINPVFVFGPQKFDEDVTSQLNTSNEIINGLIHSKPGDKLEPDYHSAYVDVRDVARAHLVAFQKDTTGERLGLSNGAFNCQSILDILNEKFPQLDITKGPEPGMGDTKPGAVFDNRHSKEVLAFPFISLEQCVYDTVAQVLKKEGRLLEHHHHHH", "protein production": "not failed"}

# ---- query sequence ----
What value of protein production has been recorded for this entry: MEKTVIYLLEDGYVDFVVEKIRTKMEKLLEEKDKIFVVLAGGRTPLPVYEKLAEQKFPWNRIHFFLSDERYVPLDSDQSNFRNINEVLFSRAKIPSGNVHYVDTSLPIEKACEKYEREIRSATDQFDLAILGMGPDGHVASIFDLETGNKDNLVTFTDPSGDPKVPRVTLTFRALNTSLYVLFLIRGKEKINRLTEILKDTPLPAYFVRGKEKTVWFVGK
not failed
